Here the recorded Ratio IC50 is given for each entry.
assay_summary: Selectivity index, ratio of IC50 for human WI-26 VA4 cells to IC50 for human RKO-AS45-1 cells
Format: functional
No unit in the answer, only the number.

>  <smiles_entry>
C[C@H]1O[C@@H](O[C@H]2[C@@H](O)C[C@H](O[C@H]3[C@@H](O)C[C@H](O[C@H]4CC[C@@]5(C)[C@H](CC[C@@H]6[C@@H]5C[C@@H](O)[C@]5(C)[C@@H](C7=CC(=O)O/C7=C\c7ccc(F)cc7)CC[C@]65O)C4)O[C@@H]3C)O[C@@H]2C)C[C@H](O)[C@@H]1O

>  <Ratio IC50>
1.31

$$$$
>  <smiles_entry>
C[C@H]1O[C@@H](O[C@H]2[C@@H](O)C[C@H](O[C@H]3[C@@H](O)C[C@H](O[C@H]4CC[C@@]5(C)[C@H](CC[C@@H]6[C@@H]5C[C@@H](O)[C@]5(C)[C@@H](C7=CC(=O)O/C7=C\c7ccc(N(C)C)cc7)CC[C@]65O)C4)O[C@@H]3C)O[C@@H]2C)C[C@H](O)[C@@H]1O

>  <Ratio IC50>
1.35

$$$$
>  <smiles_entry>
C[C@H]1O[C@@H](O[C@H]2[C@@H](O)C[C@H](O[C@H]3[C@@H](O)C[C@H](O[C@H]4CC[C@@]5(C)[C@H](CC[C@@H]6[C@@H]5C[C@@H](O)[C@]5(C)[C@@H](C7=CC(=O)O/C7=C\c7cccc(Cl)c7Cl)CC[C@]65O)C4)O[C@@H]3C)O[C@@H]2C)C[C@H](O)[C@@H]1O

>  <Ratio IC50>
0.81

$$$$
>  <smiles_entry>
COc1ccc(/C=C2\OC(=O)C=C2[C@H]2CC[C@]3(O)[C@@H]4CC[C@@H]5C[C@@H](O[C@H]6C[C@H](O)[C@H](O[C@H]7C[C@H](O)[C@H](O[C@H]8C[C@H](O)[C@H](O)[C@@H](C)O8)[C@@H](C)O7)[C@@H](C)O6)CC[C@]5(C)[C@H]4C[C@@H](O)[C@]23C)cc1

>  <Ratio IC50>
0.99

$$$$
>  <smiles_entry>
C[C@H]1O[C@@H](O[C@H]2[C@@H](O)C[C@H](O[C@H]3[C@@H](O)C[C@H](O[C@H]4CC[C@@]5(C)[C@H](CC[C@@H]6[C@@H]5C[C@@H](O)[C@]5(C)[C@@H](C7=CC(=O)O/C7=C\c7ccc(Cl)cc7)CC[C@]65O)C4)O[C@@H]3C)O[C@@H]2C)C[C@H](O)[C@@H]1O

>  <Ratio IC50>
1.21

$$$$

// sample C[C@H]1O[C@@H](O[C@H]2[C@@H](O)C[C@H](O[C@H]3[C@@H](O)C[C@H](O[C@H]4CC[C@@]5(C)[C@H](CC[C@@H]6[C@@H]5C[C@@H](O)[C@]5(C)[C@@H](C7=CC(=O)O/C7=C\c7cccc([N+](=O)[O-])c7)CC[C@]65O)C4)O[C@@H]3C)O[C@@H]2C)C[C@H](O)[C@@H]1O , its Ratio IC50 was 1.07

----------
subject_of_test: Sodium/potassium-transporting ATPase subunit alpha-1 (Homo sapiens)
assay_summary: Inhibition of human kidney Na(+)/K(+) ATPase alpha-1 assessed as amount of Pi release after 1 hr by colorimetric method
Here the recorded IC50 is given for each entry.
Report the figure in µM without appending any unit label.

Below: 3 compounds and their reported IC50.
>  <smiles_entry>
COc1ccc(/C=C2\OC(=O)C=C2[C@H]2CC[C@]3(O)[C@@H]4CC[C@@H]5C[C@@H](O[C@H]6C[C@H](O)[C@H](O[C@H]7C[C@H](O)[C@H](O[C@H]8C[C@H](O)[C@H](O)[C@@H](C)O8)[C@@H](C)O7)[C@@H](C)O6)CC[C@]5(C)[C@H]4C[C@@H](O)[C@]23C)cc1

>  <IC50, µM>
0.57

$$$$
>  <smiles_entry>
C[C@H]1O[C@@H](O[C@H]2[C@@H](O)C[C@H](O[C@H]3[C@@H](O)C[C@H](O[C@H]4CC[C@@]5(C)[C@H](CC[C@@H]6[C@@H]5C[C@@H](O)[C@]5(C)[C@@H](C7=CC(=O)O/C7=C\c7ccc(N(C)C)cc7)CC[C@]65O)C4)O[C@@H]3C)O[C@@H]2C)C[C@H](O)[C@@H]1O

>  <IC50, µM>
9.8

$$$$
>  <smiles_entry>
C[C@H]1O[C@@H](O[C@H]2[C@@H](O)C[C@H](O[C@H]3[C@@H](O)C[C@H](O[C@H]4CC[C@@]5(C)[C@H](CC[C@@H]6[C@@H]5C[C@@H](O)[C@]5(C)[C@@H](C7=CC(=O)O/C7=C\c7ccc(F)cc7)CC[C@]65O)C4)O[C@@H]3C)O[C@@H]2C)C[C@H](O)[C@@H]1O

>  <IC50, µM>
0.34

$$$$

We next turn to a different compound, shown below.
The observed IC50 for C[C@H]1O[C@@H](O[C@H]2[C@@H](O)C[C@H](O[C@H]3[C@@H](O)C[C@H](O[C@H]4CC[C@@]5(C)[C@H](CC[C@@H]6[C@@H]5C[C@@H](O)[C@]5(C)[C@@H](C7=CC(=O)O/C7=C\c7cccc([N+](=O)[O-])c7)CC[C@]65O)C4)O[C@@H]3C)O[C@@H]2C)C[C@H](O)[C@@H]1O when tested with Sodium/potassium-transporting ATPase subunit alpha-1 (Homo sapiens) stands at 11

----------
subject_of_test: Sodium/potassium-transporting ATPase subunit alpha-2/alpha-3 (Rattus norvegicus, UniProt P06686+P06687)
assay_summary: Inhibition of Wistar rat brain Na(+)/K(+) ATPase alpha-2/3 assessed as amount of Pi release after 1 hr by colorimetric method
Here the recorded pIC50 is given for each entry.
The scale used: pIC50 is minus the common logarithm of the concentration in molar units.

Below: 4 molecules and their reported pIC50.
>  <smiles_entry>
C[C@H]1O[C@@H](O[C@H]2[C@@H](O)C[C@H](O[C@H]3[C@@H](O)C[C@H](O[C@H]4CC[C@@]5(C)[C@H](CC[C@@H]6[C@@H]5C[C@@H](O)[C@]5(C)[C@@H](C7=CC(=O)O/C7=C\c7ccc(N(C)C)cc7)CC[C@]65O)C4)O[C@@H]3C)O[C@@H]2C)C[C@H](O)[C@@H]1O

>  <measured>
4.70

$$$$
>  <smiles_entry>
COc1ccc(/C=C2\OC(=O)C=C2[C@H]2CC[C@]3(O)[C@@H]4CC[C@@H]5C[C@@H](O[C@H]6C[C@H](O)[C@H](O[C@H]7C[C@H](O)[C@H](O[C@H]8C[C@H](O)[C@H](O)[C@@H](C)O8)[C@@H](C)O7)[C@@H](C)O6)CC[C@]5(C)[C@H]4C[C@@H](O)[C@]23C)cc1

>  <measured>
6.34

$$$$
>  <smiles_entry>
C[C@H]1O[C@@H](O[C@H]2[C@@H](O)C[C@H](O[C@H]3[C@@H](O)C[C@H](O[C@H]4CC[C@@]5(C)[C@H](CC[C@@H]6[C@@H]5C[C@@H](O)[C@]5(C)[C@@H](C7=CC(=O)O/C7=C\c7cccc(Cl)c7Cl)CC[C@]65O)C4)O[C@@H]3C)O[C@@H]2C)C[C@H](O)[C@@H]1O

>  <measured>
4.74

$$$$
>  <smiles_entry>
C[C@H]1O[C@@H](O[C@H]2[C@@H](O)C[C@H](O[C@H]3[C@@H](O)C[C@H](O[C@H]4CC[C@@]5(C)[C@H](CC[C@@H]6[C@@H]5C[C@@H](O)[C@]5(C)[C@@H](C7=CC(=O)O/C7=C\c7ccc(F)cc7)CC[C@]65O)C4)O[C@@H]3C)O[C@@H]2C)C[C@H](O)[C@@H]1O

>  <measured>
6.18

$$$$

// sample C[C@H]1O[C@@H](O[C@H]2[C@@H](O)C[C@H](O[C@H]3[C@@H](O)C[C@H](O[C@H]4CC[C@@]5(C)[C@H](CC[C@@H]6[C@@H]5C[C@@H](O)[C@]5(C)[C@@H](C7=CC(=O)O/C7=C\c7cccc([N+](=O)[O-])c7)CC[C@]65O)C4)O[C@@H]3C)O[C@@H]2C)C[C@H](O)[C@@H]1O , its pIC50 was 5.40
